Tested on: 885724-159-R-J1-PDC KRAS PDC multicell spheroid viability
Test: Anticancer human tumor 885724-159-R-J1-PDC patient-derived pancreatic adenocarcinoma cell line growth inhibition [KRAS2]
Settings: second compound 3.16 µM; first compound 0.01 µM; stronger effect = lower value
viability, T/C values, listed per item
Response body: numeric value in %, unit text excluded.

In: Give the reported viability, T/C for this compound. CC(=O)Nc1cccc(-n2c(=O)n(C3CC3)c(=O)c3c(Nc4ccc(I)cc4F)n(C)c(=O)c(C)c32)c1 + C=CC(=O)N1CCN(c2nc(=O)n(-c3c(C)ccnc3C(C)C)c3nc(-c4c(O)cccc4F)c(F)cc23)C(C)C1
Out: 30.1

In: Identify viability, T/C associated with the compound CN(C)C/C=C/C(=O)Nc1cc2c(Nc3ccc(F)c(Cl)c3)ncnc2cc1O[C@H]1CCOC1 + CNCc1ccccc1-c1csc(C(C)Nc2nc(C)nc3cc(OC)c(OC)cc23)c1
Out: 0.27

Consider now this further compound.
In: Please give the documented viability, T/C of CN(C)C/C=C/C(=O)Nc1cc2c(Nc3ccc(F)c(Cl)c3)ncnc2cc1O[C@H]1CCOC1 + COc1cc2nc(C)nc(NC(C)c3cc(N)cc(C(F)(F)F)c3)c2cc1OC1CCOC1
Out: 72.5

----------
System: 885724-159-R-J1-PDC KRAS PDC multicell spheroid viability
Test: Anticancer human tumor 885724-159-R-J1-PDC cell line growth inhibition [KRAS2];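 further: spheroids exposed to agents for 7 days before readout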
Details: second compound 3.16 µM; first compound 3.16 µM; stronger effect = lower value
Rule: viability, T/C below 40% gives 1.0. Equal to or above 40% gives 0.0.

Some solved cases for reference:
In: Please indicate whether the reported viability, T/C of COC(=O)c1ccc2c(C(=Nc3ccc(N(C)C(=O)CN4CCN(C)CC4)cc3)c3ccccc3)c(O)[nH]c2c1 + CC1OCC2(CCN(c3cnc(Sc4ccnc(N)c4Cl)c(N)n3)CC2)C1N is strictly below 40%.
Out: 1.0

In: Confirm or reject: viability, T/C of CC1COCCN1c1cc(-c2ccnn2C)c2ccnc(-c3ccn[nH]3)c2n1 (stereo unspecified) + CC1OCC2(CCN(c3cnc(Sc4ccnc(N)c4Cl)c(N)n3)CC2)C1N lies strictly below 40%
Out: 0.0

In: Given CC(=O)OC12COC1CC(O)C1(C)C(=O)C(O)C3=C(C)C(OC(=O)C(O)C(NC(=O)OC(C)(C)C)c4ccccc4)CC(O)(C(OC(=O)c4ccccc4)C21)C3(C)C (stereo unspecified) + CNCc1ccccc1-c1csc(C(C)Nc2nc(C)nc3cc(OC)c(OC)cc23)c1 , is recorded viability, T/C strictly lower than 40%?
Out: 0.0

Continuing:
In: Quick check: does O=C(c1cc(Cc2n[nH]c(=O)c3ccccc23)ccc1F)N1CCN(C(=O)C2CC2)CC1 + C=CC(=O)N1CCN(c2nc(=O)n(-c3c(C)ccnc3C(C)C)c3nc(-c4c(O)cccc4F)c(F)cc23)C(C)C1 have viability, T/C under 40%?
Out: 0.0

In: I wonder whether COc1cc(Nc2ncc3c(n2)-c2ccc(Cl)cc2C(c2c(F)cccc2OC)=NC3)ccc1C(=O)O + CC1OCC2(CCN(c3cnc(Sc4ccnc(N)c4Cl)c(N)n3)CC2)C1N has viability, T/C below 40%. Can you tell?
Out: 0.0

----------
Tested on: 885724-159-R-J1-PDC KRAS PDC multicell spheroid viability
Experiment: Anticancer human tumor 885724-159-R-J1-PDC cell line growth inhibition [KRAS2]; active = viability on the fitted dose curve at most 10% of control; inactive = the rest;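 further: spheroids exposed to agents for 7 days before readout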
Conditions: second compound 10 µM; first compound 0.00316 µM
Please answer using one outcome listed in T (active), F (inactive)

In: Hi, sorry to bother you, what did the test record for CC(C)n1nc(-c2ccc3oc(N)nc3c2)c2c(N)ncnc21 + CC1OCC2(CCN(c3cnc(Sc4ccnc(N)c4Cl)c(N)n3)CC2)C1N ?
Out: F

In: Please let me know the test result on file for CC(=O)Nc1cccc(-n2c(=O)n(C3CC3)c(=O)c3c(Nc4ccc(I)cc4F)n(C)c(=O)c(C)c32)c1 + CNCc1ccccc1-c1csc(C(C)Nc2nc(C)nc3cc(OC)c(OC)cc23)c1 .
Out: T

Next:
In: GET /call?item= CC(C)n1nc(-c2ccc3oc(N)nc3c2)c2c(N)ncnc21 + C=CC(=O)N1CCN(c2nc(=O)n(-c3c(C)ccnc3C(C)C)c3nc(-c4c(O)cccc4F)c(F)cc23)C(C)C1 returns the recorded outcome of this test.
Out: F

In: Assay result, entry Cn1ncnc1[C@H]1c2n[nH]c(=O)c3cc(F)cc(c23)N[C@@H]1c1ccc(F)cc1 + CNCc1ccccc1-c1csc(C(C)Nc2nc(C)nc3cc(OC)c(OC)cc23)c1 — outcome?
Out: T

In: So what was the verdict on Cn1ncnc1[C@H]1c2n[nH]c(=O)c3cc(F)cc(c23)N[C@@H]1c1ccc(F)cc1 + CC1OCC2(CCN(c3cnc(Sc4ccnc(N)c4Cl)c(N)n3)CC2)C1N in this test?
Out: F

In: Outcome? CC(C)n1nc(-c2ccc3oc(N)nc3c2)c2c(N)ncnc21 + CNCc1ccccc1-c1csc(C(C)Nc2nc(C)nc3cc(OC)c(OC)cc23)c1
Out: T

In: Test call for this molecule, please: CCN1CCN(Cc2ccc(Nc3ncc(F)c(-c4cc(F)c5nc(C)n(C(C)C)c5c4)n3)nc2)CC1 + COc1cc2nc(C)nc(NC(C)c3cc(N)cc(C(F)(F)F)c3)c2cc1OC1CCOC1
Out: F

In: Assay outcome for CN(C)C/C=C/C(=O)Nc1cc2c(Nc3ccc(F)c(Cl)c3)ncnc2cc1O[C@H]1CCOC1 + COc1cc2nc(C)nc(NC(C)c3cc(N)cc(C(F)(F)F)c3)c2cc1OC1CCOC1 : what was it?
Out: F

In: Query: recorded result category for CC(=O)Nc1cccc(-n2c(=O)n(C3CC3)c(=O)c3c(Nc4ccc(I)cc4F)n(C)c(=O)c(C)c32)c1 + COc1cc2nc(C)nc(NC(C)c3cc(N)cc(C(F)(F)F)c3)c2cc1OC1CCOC1 in this test
Out: T

----------
System: 885724-159-R-J1-PDC KRAS PDC multicell spheroid viability
Assay: Anticancer human tumor 885724-159-R-J1-PDC cell line growth inhibition [KRAS2];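 further: spheroids exposed to agents for 7 days before readout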
Conditions: second compound 0.1 µM; first compound 0.01 µM; stronger effect = lower value
viability, T/C: recorded values
Your answer should be a plain number; it is taken to be in %.

Here are 2 compounds together with their reported answers.
In: Give viability, T/C for the following compound: CC(C)n1nc(-c2ccc3oc(N)nc3c2)c2c(N)ncnc21 + C=CC(=O)N1CCN(c2nc(OCC3CCCN3C)nc3c2CCN(c2cccc4cccc(C)c24)C3)CC1CC#N
Out: 61.7

In: State its viability, T/C for this compound: CN(C)C/C=C/C(=O)Nc1cc2c(Nc3ccc(F)c(Cl)c3)ncnc2cc1O[C@H]1CCOC1 + CC1OCC2(CCN(c3cnc(Sc4ccnc(N)c4Cl)c(N)n3)CC2)C1N
Out: 89.4

***
In: Look up viability, T/C of CC(=O)OC12COC1CC(O)C1(C)C(=O)C(O)C3=C(C)C(OC(=O)C(O)C(NC(=O)OC(C)(C)C)c4ccccc4)CC(O)(C(OC(=O)c4ccccc4)C21)C3(C)C (stereo not given) + C=CC(=O)N1CCN(c2nc(=O)n(-c3c(C)ccnc3C(C)C)c3nc(-c4c(O)cccc4F)c(F)cc23)C(C)C1 and report it.
Out: 91.7

In: Identify measured viability, T/C associated with CC(=O)OC12COC1CC(O)C1(C)C(=O)C(O)C3=C(C)C(OC(=O)C(O)C(NC(=O)OC(C)(C)C)c4ccccc4)CC(O)(C(OC(=O)c4ccccc4)C21)C3(C)C (stereo not given) + C=CC(=O)N1CCN(c2nc(OCC3CCCN3C)nc3c2CCN(c2cccc4cccc(C)c24)C3)CC1CC#N
Out: 87.5

In: Item CC(C)n1nc(-c2ccc3oc(N)nc3c2)c2c(N)ncnc21 + C=CC(=O)N1CCN(c2nc(=O)n(-c3c(C)ccnc3C(C)C)c3nc(-c4c(O)cccc4F)c(F)cc23)C(C)C1 : provide viability, T/C
Out: 61

----------
Test system: 885724-159-R-J1-PDC KRAS PDC multicell spheroid viability
Test: Anticancer human tumor 885724-159-R-J1-PDC cell line growth inhibition [KRAS2];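 further: spheroids exposed to agents for 7 days before readout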
Settings: curve of first compound; second compound 10 µM
Parameter IC50: see the listing below.

Use these answered entries as a reference point.
In: Note down IC50 recorded for CC1COCCN1c1cc(-c2ccnn2C)c2ccnc(-c3ccn[nH]3)c2n1 (stereo not drawn) + CNCc1ccccc1-c1csc(C(C)Nc2nc(C)nc3cc(OC)c(OC)cc23)c1
Out: < 10 nM

In: Tell me its IC50 given COC(=O)c1ccc2c(C(=Nc3ccc(N(C)C(=O)CN4CCN(C)CC4)cc3)c3ccccc3)c(O)[nH]c2c1 + COc1cc2nc(C)nc(NC(C)c3cc(N)cc(C(F)(F)F)c3)c2cc1OC1CCOC1 as the entry.
Out: < 31.6 nM

Shifting focus to the compound that follows.
In: Answer with the recorded IC50 of CN(C)C/C=C/C(=O)Nc1cc2c(Nc3ccc(F)c(Cl)c3)ncnc2cc1O[C@H]1CCOC1 + C=CC(=O)N1CCN(c2nc(=O)n(-c3c(C)ccnc3C(C)C)c3nc(-c4c(O)cccc4F)c(F)cc23)C(C)C1 only.
Out: > 100 nM

Cited source: PubChem BioAssay AID1963861
